Test system: SCD-1 mRNA
Assay: Inhibition of SCD-1 mRNA induction in 3T3-L1 cells (RT-PCR)
Assay type: cell-based, murine
Conditions: Mus musculus, 3T3-L1, 96 h, read-out: EC50 for inhibition of murine 3T3-L1 expression of SCD-1 mRNA
Measure name: pEC50
Schema: pEC50 number; meaning minus log10 of the concentration expressed in molar units.

Req: Tell me the measured pEC50 of C=C1/C(=C\C=C2/CCC[C@]3(C)[C@@H]([C@H](C)CCCC(C)(C)O)CC[C@@H]23)C[C@@H](O)C[C@@H]1O [1α,25(OH)2D3, 1α,25-dihydroxyvitamin D3, reference compound] , please.
Resp: 9.70

====

Test: Intestinal calcium transport (everted gut sac)
Format: in vivo
Settings: result in words; vitamin D deficient rat model, compared to 1α,25(OH)2D3
Measure name: intestinal calcium transport activity

Below, 4 compounds whose answers are already recorded.
> print(dat)
                                   compound                test.value
1  C=C1[C@H](O)CC(=C/C=C2\CCC[C@]3(C)[C@@H](C(C)C)CC[C@@H]23)C[C@H]1O [2-MP]  little, if any, activity
2  C=C1[C@H](O)CC(=C/C=C2\CCC[C@]3(C)[C@@H]([C@@H](C)CC)CC[C@@H]23)C[C@H]1O [2-MbisP]  little, if any, activity
3  C=C1[C@H](O)CC(=C/C=C2\CCC[C@]3(C)[C@@H]([C@@H](C)CCCC(C)(C)O)CC[C@@H]23)C[C@H]1O [2-MD]                    active
4  C=C1[C@H](O)CC(=C/C=C2\CCC[C@]3(C)[C@@H](CC)CC[C@@H]23)C[C@H]1O [2-Mpregna]  little, if any, activity

Req: Tell me the measured intestinal calcium transport activity of C=C1[C@H](O)CC(=C/C=C2\CCC[C@]3(C)[C@@H]([C@@H](C)CCCC(C)(C)C)CC[C@@H]23)C[C@H]1O [TMM] , please.
Resp: active

====

Target: full-length recombinant rat vitamin D receptor (Rattus norvegicus)
Construct: Full-length recombinant rat receptor was expressed in E. coli; histidine tag (C); made in house; host or cells: E. coli BL21(DE3) Codon Plus RIL
Sequence (P13053 whole entry): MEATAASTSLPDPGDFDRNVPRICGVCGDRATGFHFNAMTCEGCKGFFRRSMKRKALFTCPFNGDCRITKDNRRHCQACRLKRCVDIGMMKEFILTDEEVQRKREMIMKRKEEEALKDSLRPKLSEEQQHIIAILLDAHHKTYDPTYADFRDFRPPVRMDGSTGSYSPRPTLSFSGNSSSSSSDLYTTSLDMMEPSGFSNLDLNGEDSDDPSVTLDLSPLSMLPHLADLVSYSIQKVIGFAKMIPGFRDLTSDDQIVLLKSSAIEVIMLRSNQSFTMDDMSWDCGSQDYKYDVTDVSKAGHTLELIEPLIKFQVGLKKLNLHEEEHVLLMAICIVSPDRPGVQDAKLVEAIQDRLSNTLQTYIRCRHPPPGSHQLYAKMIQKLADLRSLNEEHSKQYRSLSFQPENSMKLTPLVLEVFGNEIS
Experiment: Vitamin D receptor binding (competition with 3H-1,25(OH)2D3)
Settings: result in words; competition for tritiated hormone binding
Measure name: binding to the vitamin D receptor, compared to 1α,25(OH)2D3

Compound	Test value
C=C1[C@H](O)CC(=C/C=C2\CCC[C@@H]3[C@@H](C(C)C)CC[C@@H]23)C[C@H]1O	bound equally well
CCCC[C@H](C)[C@H]1CC[C@H]2/C(=C/C=C3C[C@@H](O)C(C)[C@H](O)C3)CCC[C@]12C (some centres unmarked)	bound equally well
CC(CCCC(C)(C)O)C1CCC2C(=CC=C3CC(O)C(=CCCO)C(O)C3)CCCC21C (centres unmarked) [1AGS]	very active
CC(CCCC(C)(C)O)C1CCC2C(=CC=C3CC(O)C(=CCCO)C(O)C3)CCCC21C (centres unmarked) [1AGR]	very active

====

Test: Bone calcium mobilization (serum calcium on low calcium diet)
Assay type: in vivo, rat
Conditions: result in words; vitamin D deficient rat model, compared to 1α,25(OH)2D3
Measure name: bone calcium mobilization activity

Below, 4 compounds whose answers are already recorded.
Item smiles	bone calcium mobilization activity
C=C1[C@H](O)CC(=C/C=C2\CCC[C@]3(C)[C@@H](CC)CC[C@@H]23)C[C@H]1O	little, if any, activity
C=C1[C@H](O)CC(=C/C=C2\CCC[C@]3(C)[C@@H](C(C)C)CC[C@@H]23)C[C@H]1O	little, if any, activity
C=C1[C@H](O)CC(=C/C=C2\CCC[C@]3(C)[C@@H]([C@@H](C)CCCC(C)(C)C)CC[C@@H]23)C[C@H]1O	active
C=C1[C@H](O)CC(=C/C=C2\CCC[C@]3(C)[C@@H]([C@@H](C)CC)CC[C@@H]23)C[C@H]1O	little, if any, activity

Then there is this compound:
Req: Tell me the measured bone calcium mobilization activity of `C=C1[C@H](O)CC(=C/C=C2\CCC[C@]3(C)[C@@H]([C@@H](C)CCCC(C)(C)O)CC[C@@H]23)C[C@H]1O` , please.
Resp: active

====

System: Human promyelocytic leukemia (HL60) cells
Assay: HL-60 differentiation (nitro blue tetrazolium reduction)
Assay type: cell-based
Conditions: result in words
Protocol: The study drugs were dissolved in ethanol and the concentrations determined using UV spectrophotometry. […] HL60 cells were plated at 1.2×10^5 cells/ml. […] The percentage of differentiated cells was determined by counting a total of 200 cells and recording the number that contained intracellular black-blue formazan deposits. Verification of differentiation to monocytic cells was determined by measuring phagocytic activity (data not shown).
Measure name: differentiation of HL-60 cells, compared to 1α,25(OH)2D3

Below, 6 molecules whose answers are already recorded.
Molecule	Test value
C=C1[C@H](O)CC(=C/C=C2\CCC[C@@H]3[C@@H](C(C)C)CC[C@@H]23)C[C@H]1O [18,19-dinor-2MP]	almost as potent
CC(CCCC(C)(C)O)C1CCC2C(=CC=C3CC(O)C(=CCCO)C(O)C3)CCCC21C (stereo not drawn) [1AGS]	as potent as
CCCC[C@H](C)[C@H]1CC[C@H]2/C(=C/C=C3C[C@@H](O)C(C)[C@H](O)C3)CCC[C@]12C (stereo partly drawn) [2α-methyl-19,26,27-trinor]	almost as potent
C=C1[C@H](O)CC(=C/C=C2\CCC[C@]3(C)[C@@H]([C@@H](C)CCCC)CC[C@@H]23)C[C@H]1O [(20S)OM]	almost as potent
CC(CCCC(C)(C)O)C1CCC2C(=CC=C3CC(O)C(=CCCO)C(O)C3)CCCC21C (stereo not drawn) [1AGR]	as potent as
COCOCCC=C1C(O)CC(=CC=C2CCCC3(C)C2CCC3C(C)CCCC(C)(C)O)CC1O (stereo not drawn) [F-Wit]	as potent as

Then there is this molecule:
Req: Tell me the measured differentiation of HL-60 cells, compared to 1α,25(OH)2D3 of C=C1[C@H](O)CC(=C/C=C2\CCC[C@]3(C)C(=C(C)C)CC[C@@H]23)C[C@H]1O [VIT-I] , please.
Resp: almost as potent
